Collected Mean relative activity values appear next to each entry.
- Tested on: K562 CRISPRi cells
- method.description: Constant region variant library pooled growth screen, K562
- Type: cell-based, human
- recorded.conditions: sgRNA constant region variants; activity relative to the original, un-modified constant region cr995

{"molecule": "cr588 (nucleic acid, listed as DNA, chemistry not fully specified) guide: GTTTAAGAGCTAAGCTGGAAACAGCATAGCAACTTTAAATAAGGCTAGTCCGTTATCAACTTGAAAAAGTGGTACCGAGTCGGTACT", "Mean relative activity": 0.07507}
{"molecule": "cr785 (nucleic acid, listed as DNA, chemistry not fully specified) guide: GTTTAAGAGCTAAGCTGGAAACAGCATAGCAAGTTTAAATAAGGCGAGTCCGTTATCAACTTGAAAAAGTGGCACCGAGTCGGTGCG", "Mean relative activity": 0.8378}
{"molecule": "cr621 (nucleic acid, listed as DNA, chemistry not fully specified) guide: GTTTAAGAGCTAAGCTGGAAACAGCATAGCAAGTTTAAATAAGACTAGTTCGTTATCAACGTGAAAACGTGGCACCAAGTTGGTGCT", "Mean relative activity": 0.818}
{"molecule": "cr326 (nucleic acid, listed as DNA, chemistry not fully specified) guide: GTTTAAGAGCTAAGCTGGAAACAGCATAGCAAGCTTAAATAACGCTAGTCGGTTATCAACTTGAAAAAGTGGCACCGAGTCGGTGCT", "Mean relative activity": "−0.001062"}
